Data origin: patent US10961236B2

# experimental_system: recombinant human PI3Kβ (6-His(p110-p85α)) (Homo sapiens (Human), UniProt P42338)
# Sequence (P42338 whole entry): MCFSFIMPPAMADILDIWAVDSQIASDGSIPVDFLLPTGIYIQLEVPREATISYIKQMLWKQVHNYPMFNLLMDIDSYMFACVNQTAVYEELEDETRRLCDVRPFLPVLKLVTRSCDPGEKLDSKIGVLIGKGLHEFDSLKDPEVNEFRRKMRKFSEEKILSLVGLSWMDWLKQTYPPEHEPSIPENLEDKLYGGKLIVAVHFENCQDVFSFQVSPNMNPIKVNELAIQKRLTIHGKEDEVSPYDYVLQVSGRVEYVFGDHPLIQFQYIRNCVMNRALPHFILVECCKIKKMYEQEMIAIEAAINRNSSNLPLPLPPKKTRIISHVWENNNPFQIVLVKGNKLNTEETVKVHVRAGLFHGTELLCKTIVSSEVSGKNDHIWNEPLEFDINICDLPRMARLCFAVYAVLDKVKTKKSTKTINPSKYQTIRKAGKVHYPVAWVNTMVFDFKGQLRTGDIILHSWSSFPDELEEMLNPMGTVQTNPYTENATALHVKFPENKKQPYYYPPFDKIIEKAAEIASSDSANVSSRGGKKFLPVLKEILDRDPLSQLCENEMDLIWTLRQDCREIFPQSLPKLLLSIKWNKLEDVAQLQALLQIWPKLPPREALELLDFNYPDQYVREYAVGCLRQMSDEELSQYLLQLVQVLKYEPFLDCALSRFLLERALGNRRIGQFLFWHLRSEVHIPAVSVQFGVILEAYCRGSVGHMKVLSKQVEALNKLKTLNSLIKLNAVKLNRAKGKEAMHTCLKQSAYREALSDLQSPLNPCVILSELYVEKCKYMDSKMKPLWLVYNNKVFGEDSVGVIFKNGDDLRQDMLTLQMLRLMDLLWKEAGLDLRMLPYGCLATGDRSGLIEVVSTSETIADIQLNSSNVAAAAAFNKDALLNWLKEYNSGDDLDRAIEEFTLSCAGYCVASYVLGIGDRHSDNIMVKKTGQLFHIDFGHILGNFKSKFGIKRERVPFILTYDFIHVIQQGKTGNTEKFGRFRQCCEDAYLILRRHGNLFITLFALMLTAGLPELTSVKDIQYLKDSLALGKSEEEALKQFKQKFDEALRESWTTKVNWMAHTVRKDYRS
# Sequence (P27986 whole entry partner): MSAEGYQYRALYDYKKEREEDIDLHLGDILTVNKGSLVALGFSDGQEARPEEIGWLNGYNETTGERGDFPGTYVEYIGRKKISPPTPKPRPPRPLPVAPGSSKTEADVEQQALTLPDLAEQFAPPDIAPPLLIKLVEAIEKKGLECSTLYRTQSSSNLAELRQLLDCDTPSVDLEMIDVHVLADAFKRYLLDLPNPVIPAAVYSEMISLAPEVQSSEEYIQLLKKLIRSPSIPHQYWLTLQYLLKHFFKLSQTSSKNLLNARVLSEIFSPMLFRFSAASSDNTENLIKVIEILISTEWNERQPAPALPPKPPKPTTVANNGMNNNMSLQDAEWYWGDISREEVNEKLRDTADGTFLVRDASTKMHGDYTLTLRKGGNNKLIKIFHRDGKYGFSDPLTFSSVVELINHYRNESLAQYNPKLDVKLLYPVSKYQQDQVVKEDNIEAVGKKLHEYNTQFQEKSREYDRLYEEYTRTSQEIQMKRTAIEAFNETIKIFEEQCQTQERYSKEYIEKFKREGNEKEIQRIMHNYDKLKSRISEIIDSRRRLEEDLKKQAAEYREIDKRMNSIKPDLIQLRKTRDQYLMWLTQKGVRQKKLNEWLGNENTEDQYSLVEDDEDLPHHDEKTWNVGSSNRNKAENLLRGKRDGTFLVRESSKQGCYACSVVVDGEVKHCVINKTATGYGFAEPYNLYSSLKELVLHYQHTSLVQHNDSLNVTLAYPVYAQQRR
# run_description: Enzymatic activity assay for recombinant human PI3Kβ (ADP-Glo)
# test_conditions: 1.2 nM PI3Kβ, 20 μM ATP, 80 μM DiC8-PIP2, ADP-Glo
Each item that follows carries a reported pIC50.
Convention used: pIC50 is expressed as -log10 of the molar concentration.

CC(=O)N(C)c1cccc(Nc2nc(C)c(-c3cc4c(c(S(C)(=O)=O)c3)C(=O)N([C@@H](C)C3CC3)C4)s2)n1 [Example 3] = 5.93
Cc1nc(Nc2cccc(N3CCNC3=O)n2)sc1-c1cc2c(c(S(C)(=O)=O)c1)C(=O)N([C@@H](C)C(F)(F)F)C2 [Example 11] = 6.54

Ask: # lookup: pIC50 of CNS(=O)(=O)c1cc(-c2sc(Nc3cccc(N4CCOCC4=O)n3)nc2C)cc2c1C(=O)N([C@@H](C)C1CC1)C2 [Example 20]
Result: 6.27

* * *

# experimental_system: recombinant human PI3Kβ (6-His(p110-p85α)) (Homo sapiens (Human))
# run_description: Enzymatic activity assay for recombinant human PI3Kβ (ADP-Glo)
# Type: biochemical
# test_conditions: 1.2 nM PI3Kβ, 20 μM ATP, 80 μM DiC8-PIP2, ADP-Glo
measured_metric: IC50
Kindly report the value followed by its unit.

Here is how some compounds turned out for IC50.
CCNS(=O)(=O)c1cc(-c2sc(Nc3cccc(N4CCNCC4=O)n3)nc2C)cc2c1C(=O)N([C@@H](C)C1CC1)C2 = 271 nM
CNS(=O)(=O)c1cc(-c2sc(Nc3cccc(N4CC[C@@H](O)C4=O)n3)nc2C)cc2c1C(=O)N([C@@H](C)C1CC1)C2 = 325 nM
CNS(=O)(=O)c1cc(-c2sc(Nc3cccc(N4C(=O)CNC[C@H]4C)n3)nc2C)cc2c1C(=O)N([C@@H](C)C1CC1)C2 = 123 nM
Cc1nc(Nc2cccc(N3CCCCC3=O)n2)sc1-c1cc2c(c(S(=O)(=O)NC3COC3)c1)C(=O)N([C@@H](C)C(F)(F)F)C2 = 113 nM
Cc1nc(Nc2cccc(N3CCCCC3=O)n2)sc1-c1cc2c(c(S(C)(=O)=O)c1)C(=O)N([C@@H](C)C1CC1)C2 = 250 nM

Switching to the query record.
Ask: IC50 of CC(=O)Nc1cccc(Nc2nc(C)c(-c3cc4c(c(S(C)(=O)=O)c3)C(=O)N([C@@H](C)C3CC3)C4)s2)n1 on recombinant human PI3Kβ (6-His(p110-p85α)) (Homo sapiens (Human))?
Result: 3730 nM

* * *

# experimental_system: recombinant human PI3Kγ ((aa144-1102)-6His) (Homo sapiens (Human), UniProt P48736)
# Sequence (P48736 144-1102): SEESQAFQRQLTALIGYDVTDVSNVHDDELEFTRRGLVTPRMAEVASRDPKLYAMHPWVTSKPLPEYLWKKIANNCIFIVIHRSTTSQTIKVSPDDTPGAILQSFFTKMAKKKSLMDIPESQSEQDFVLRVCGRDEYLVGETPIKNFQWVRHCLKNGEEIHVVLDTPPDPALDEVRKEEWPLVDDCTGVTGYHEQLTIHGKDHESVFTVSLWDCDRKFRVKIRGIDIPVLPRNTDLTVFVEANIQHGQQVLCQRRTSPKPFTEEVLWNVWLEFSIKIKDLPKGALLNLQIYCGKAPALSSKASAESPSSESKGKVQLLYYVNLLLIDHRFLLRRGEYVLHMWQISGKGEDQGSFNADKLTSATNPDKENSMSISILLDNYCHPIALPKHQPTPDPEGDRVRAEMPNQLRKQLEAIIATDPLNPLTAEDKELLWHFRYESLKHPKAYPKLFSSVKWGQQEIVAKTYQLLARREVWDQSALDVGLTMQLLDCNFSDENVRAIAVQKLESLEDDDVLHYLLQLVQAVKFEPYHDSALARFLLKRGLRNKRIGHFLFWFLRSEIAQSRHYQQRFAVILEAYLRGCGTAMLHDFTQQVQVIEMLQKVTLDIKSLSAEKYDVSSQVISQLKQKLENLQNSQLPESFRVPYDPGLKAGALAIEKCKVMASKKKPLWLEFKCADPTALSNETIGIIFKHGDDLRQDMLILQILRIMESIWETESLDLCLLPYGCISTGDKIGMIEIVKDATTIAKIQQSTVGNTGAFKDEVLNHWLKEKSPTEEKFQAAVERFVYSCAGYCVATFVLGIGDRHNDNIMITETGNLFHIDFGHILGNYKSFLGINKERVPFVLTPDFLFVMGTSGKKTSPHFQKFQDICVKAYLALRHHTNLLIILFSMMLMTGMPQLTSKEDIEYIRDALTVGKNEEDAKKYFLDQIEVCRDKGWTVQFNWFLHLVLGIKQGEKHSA
# run_description: Enzymatic activity assay for recombinant human PI3Kγ (ADP-Glo)
# test_conditions: 1.2 nM PI3Kγ, 20 μM ATP, 80 μM DiC8-PIP2, ADP-Glo
measured_metric: pIC50
# reply with the number alone; pIC50 is -log10 of concentration in mol/L

Record excerpt, results attached:
CNS(=O)(=O)c1cc(-c2sc(Nc3cccc(N4CCN[C@H](C)C4=O)n3)nc2C)cc2c1C(=O)N([C@@H](C)C1CC1)C2 = 9.00
Cc1nc(Nc2cccc(N3CCN(C)C3=O)n2)sc1-c1cc2c(c(S(C)(=O)=O)c1)C(=O)N([C@@H](C)C1CC1)C2 = 8.92
CNS(=O)(=O)c1cc(-c2sc(Nc3cccc(N4CCNC4=O)n3)nc2C)cc2c1C(=O)N([C@@H](C)C(F)(F)F)C2 = 8.92
CC[C@H](C)N1Cc2cc(-c3sc(Nc4cccc(N5CCOCC5=O)n4)nc3C)cc(S(=O)(=O)NC)c2C1=O = 9.10
Cc1nc(Nc2cccc(N3CCNCC3=O)n2)sc1-c1cc2c(c(S(=O)(=O)NC(C)C)c1)C(=O)N([C@@H](C)C1CC1)C2 = 8.82

Ask: Give the measured pIC50 of CNS(=O)(=O)c1cc(-c2sc(Nc3cccc(N4C[C@H](O)CC4=O)n3)nc2C)cc2c1C(=O)N([C@@H](C)C1CC1)C2 .
Result: 9.05
